# Test system: CCRF-CEM leukemia
# test_description: NCI-60 one-dose screen, 48 h (100 = growth as untreated, 0 = no growth, -100 = all killed)
# assay_context: 10 µM unless noted
The panel holds about 83,000 compounds, 20% with a hit somewhere; the sample as a whole holds those more often.
assay_metric: growth (%)

{"molecule": "Fc1ccc([C@@H]2CCNC[C@H]2COc2ccc3c(c2)OCO3)cc1", "assay_metric": "growth", "readout_unit": "%", "test_value": 60.6}
{"molecule": "Cn1cnc([N+](=O)[O-])c1S(=O)(=O)Oc1ccc(Cl)cc1", "assay_metric": "growth", "readout_unit": "%", "test_value": -49.8}
{"molecule": "Cc1nn(-c2ccccc2)c2c1oc(=O)c1cc(Cl)ccc12", "assay_metric": "growth", "readout_unit": "%", "test_value": 98.1}
{"molecule": "COc1cccc2c1O/C(=C\\c1c([N+](=O)[O-])ncn1C)C2=O", "assay_metric": "growth", "readout_unit": "%", "test_value": -7.36}
{"molecule": "CN(C)c1ccc2[nH]c3c(C(N)=O)cc(=O)c(=O)c=3oc2c1", "assay_metric": "growth", "readout_unit": "%", "test_value": 11.9}
{"molecule": "O=C(Nc1ccc(Oc2ccc(NC(=O)Nc3ccc([N+](=O)[O-])cc3)cc2)cc1)Nc1ccc([N+](=O)[O-])cc1", "assay_metric": "growth", "readout_unit": "%", "test_value": -32}
{"molecule": "COc1ccc2c(c1)nc(N)c1c3cc(OC)c(OC)cc3cn21", "assay_metric": "growth", "readout_unit": "%", "test_value": 47.1}
{"molecule": "N#Cc1c(N2CCOCC2)nc2sc3cc(Cl)ccc3n2c1=N", "assay_metric": "growth", "readout_unit": "%", "test_value": 126}
{"molecule": "CCOc1nc(-c2ccccc2)cc2c(O)c(-c3nnco3)[nH]c(=O)c12", "assay_metric": "growth", "readout_unit": "%", "test_value": 15.7}
{"molecule": "O=[N+]([O-])c1ccc(Oc2cccc(C(F)(F)F)c2)c([N+](=O)[O-])c1", "assay_metric": "growth", "readout_unit": "%", "test_value": 14.7}
{"molecule": "ClC1=C(Cl)C(Cl)=C(Cl)C1=C/C=C/c1ccccc1", "assay_metric": "growth", "readout_unit": "%", "test_value": -21.4}
{"molecule": "Cn1cc(-c2nc(-c3c[nH]c4ncccc34)cs2)c2cccnc21", "assay_metric": "growth", "readout_unit": "%", "test_value": 65.3}
{"molecule": "CCOc1cccc(C2CC(=O)Nc3cc4c(cc32)OCO4)c1 (configuration not stated)", "assay_metric": "growth", "readout_unit": "%", "test_value": 72.7}
{"molecule": "CCC(C)(C)C(=O)O[C@H]1C[C@@H](C)C=C2C=C[C@H](C)[C@H](CC[C@@H]3C[C@@H](O)CC(=O)O3)[C@H]21", "assay_metric": "growth", "readout_unit": "%", "test_value": 62.5}
{"molecule": "O=C1CC(=O)N(c2ccccc2)O1", "assay_metric": "growth", "readout_unit": "%", "test_value": 110}
{"molecule": "O=C1CN(CO)C(=O)CN1CO", "assay_metric": "growth", "readout_unit": "%", "test_value": 92.8}
{"molecule": "COc1ccc(-c2csc(NC(=O)c3cc(OC)c(OC)c(OC)c3)n2)cc1", "assay_metric": "growth", "readout_unit": "%", "test_value": 105}
{"molecule": "CCC(CC)NCCCCCNc1cc(OC)cc2cccnc12", "assay_metric": "growth", "readout_unit": "%", "test_value": 114}
{"molecule": "Cc1c(C(N)=O)sc2ncn(Cc3ccccc3)c(=O)c12", "assay_metric": "growth", "readout_unit": "%", "test_value": 138}
{"molecule": "CN(C)c1ccc(/C=C\\c2ccnc3ccccc23)cc1", "assay_metric": "growth", "readout_unit": "%", "test_value": 29.5}
{"molecule": "Cc1ccc([N+](=O)[O-])cc1NC(=O)Nc1cccc(F)c1", "assay_metric": "growth", "readout_unit": "%", "test_value": 54.4}
{"molecule": "Oc1[nH]c2ccccc2c1/C=c1/ccc2c(c1)N=C(c1cc(F)cc(F)c1)N=2", "assay_metric": "growth", "readout_unit": "%", "test_value": -3.33}
